# Tested on: SNB-75 CNS
# assay_procedure: NCI tumour cell line growth inhibition, 48 h
measurement_type: TGI

In one line, give reported TGI of the entry CC(C)=CC1CC(=[N+]=[N-])C(=O)C1(C)C (stereo unspecified) .
> 86.5 µM

Provide one value: measured TGI of C[C@@]12CCC[C@@](C)(C(=O)O)C1CC[C@]13CC(=O)[C@](CO)(C1)[C@@H](O)CC32 (stereo partly specified)
> 100 µM

Query TGI for COc1cc2c(cc1OC)C1C[C@]3(CCN1CC2)C(=O)N(c1ccccc1)C(=O)N3C(C)=O (stereo partly specified)
> 200 µM

Answer with the recorded TGI of CC(C(=O)O)c1cccc(Oc2ccccc2)c1 (stereo unspecified) only.
> 100 µM

Recall and state the measured TGI for O=C(CSc1c2ccccc2nc2ccccc12)Nc1ccccc1-c1ccccc1NC(=O)CSc1c2ccccc2nc2ccccc12 .
> 100 µM

State, in one line, measured TGI of CC(C)(C)[Si](C)(C)OC1C(=O)C[C@H]2CCCC[C@@H]12 (stereo partly specified)
> 100 µM

###

# Test system: OVCAR-5 ovarian
# assay_procedure: NCI tumour cell line growth inhibition, 48 h
measurement_type: GI50

Name the recorded GI50 of the item CN1CC[C@@H](c2c(O)cc(O)c3c(=O)cc(-c4ccc(C(F)(F)F)cc4Cl)oc23)[C@@H]1CO in your answer.
14.1 µM

Supply GI50 value. Item: COc1ccccc1Nc1ncc(-c2ccccc2)o1
> 25 µM

State its GI50 for this compound: CC(C(=O)O)c1cccc(Oc2ccccc2)c1 (stereo not drawn)
> 100 µM

###

Record form. Attribute: TGI. Fill in for each entry.
# System: UACC-257 melanoma
# assay_procedure: NCI tumour cell line growth inhibition, 48 h

Give a short answer stating reported TGI for COC1(OC)CCCc2c1no[n+]2[O-] .
> 100 µM

Fill in TGI for record BrCc1cccc(C[P+](c2ccccc2)(c2ccccc2)c2ccccc2)c1
> 100 µM

Identify the reported TGI for the following entry. CCOC(=O)Cc1ccc(Nc2nc3ccccc3nc2C(=O)OCC)cc1
> 100 µM

For the compound Cc1ccc(Nc2oc(-c3ccccc3)nc2[P+](c2ccccc2)(c2ccccc2)c2ccccc2)cc1 , give its measured TGI value.
2.75 µM

Return the recorded TGI value; entry: CCc1ccc(/C=C/c2ccc(O)c3ncccc23)[n+](C)c1
> 100 µM

Name the recorded TGI of the item CC12CCC3c4ccc(O)cc4CCC3C1C/C(=N\O)C2O (stereo not drawn) in your answer.
> 100 µM

Identify measured TGI corresponding to CCCC(=O)N1CCN(c2ccc3c(c2)OC(C)O3)CC1 (stereo not drawn)
> 100 µM

Recall and state the measured TGI for CC1=C(CO)C2=C(C)C3(CC3)[C@@](C)(O)C(=O)C2=C1 .
0.487 µM

###

# Test system: NCI-H522 lung
# assay_procedure: NCI tumour cell line growth inhibition, 48 h
Would you mind telling me the reported TGI of each entry?

Provide TGI value for the following compound: CCOc1nnnc2nc[nH]c12
> 100 µM

In one line, give reported TGI of the entry COC(=O)c1s/c(=N\C(=S)N(C)C)n(-c2ccc(Cl)cc2)c1C(=O)OC .
> 100 µM

Determine from records and report TGI for CC12CCC3c4ccc(O)cc4CCC3C1C/C(=N\O)C2O (stereo not given)
> 100 µM

Tell me measured TGI for C=COC(=O)N[C@H]1CCc2cc(OC)c(OC)c(OC)c2-c2ccc(SC)c(=O)cc21 please.
< 0.01 µM

Kindly indicate its recorded TGI. Item: COc1ccc(-c2cc3ccccc3oc2=O)cc1OC
> 100 µM

Give reported TGI value for O=C1c2cccc3cccc(c23)C(=O)N1CCCCCN1CCN(CCCCCOc2ccc(-c3nc4ccc(N5CCOCC5)cc4[nH]3)cc2)CC1
> 68.5 µM

Report TGI for COc1ccc2c(C(=O)c3cn(CCN4CCOCC4)c4ccccc34)cccc2c1
> 100 µM

Input Oc1ccc2ccccc2c1N=Nc1ccc(Br)cc1 , output reported TGI.
> 100 µM

Please report the measured TGI for CN(C)C(=O)/C=C/c1c[nH]c(=O)[nH]c1=O
> 500 µM

Complete the entry with TGI for CS(=O)(=O)c1ccc(-c2cc(-c3ccc(S(C)(=O)=O)cc3)[n+](-c3cc(-c4ccccc4)c([O-])c(-c4ccccc4)c3)c(-c3ccc(S(C)(=O)=O)cc3)c2)cc1
> 100 µM

###

Consider the following molecules; for each one, report its TGI.
# System: KM12 colon
# assay_procedure: NCI tumour cell line growth inhibition, 48 h

Give TGI for CCOC(=O)c1nc2cc(F)c(N3CCOCC3)cc2[nH]c1=O
> 100 µM

Return TGI (reported value) for this molecule: COC(=O)c1cc2c(s1)-c1nccc3c1c(nc1ccccc13)C2=O
> 100 µM

# return recorded TGI for input CC(C)=CCc1cc2c(cc1O)OC[C@H]1c3cc4c(cc3O[C@@H]21)OCO4
> 100 µM

Provide measured TGI value, entry: CCOC(=O)[C@H](C)OC(=O)[C@@](C)(NC(=O)c1ccccc1C(=O)OC)[C@@H]1NC=C(C(=O)OC)CS1
> 100 µM

Return reported TGI. Input molecule: [N-]=[N+]=CC(=O)OC1Cc2ccccc2C1
> 100 µM

Provide only the value of recorded TGI for COc1ccc(Cn2c(N)c(S(=O)(=O)c3ccc(Cl)cc3)c3nc(C#N)c(C#N)nc32)cc1
> 50 µM

Provide only the value of recorded TGI for CC(=O)NC1=N/C(=C\c2ccc(Cl)cc2)C(=O)N1/C=C1\C(=O)Oc2ccccc2C1=O
> 100 µM

Find the measured TGI of COC1CCCCN1C(=O)c1ccccc1 (configuration not stated) and report it.
> 25.3 µM

Tell me measured TGI for CN1C(=O)C2CCCC(=O)N2c2cccnc21 (configuration not stated) please.
> 100 µM

Answer with the recorded TGI for the molecule listed here: CSc1ccsc1-c1sc(-c2cc(SC)c(-c3sc(-c4cc(SC)c(-c5sccc5SC)s4)cc3SC)s2)cc1SC
> 100 µM

Provide one value: measured TGI of CCOC(=O)C(CCN1CCC2(CC1)C(=O)N(C)CN2c1ccccc1)C(=O)OCC
> 100 µM

Report measured TGI; entry is COC(=O)C(C(=O)Cc1ccccc1[N+](=O)[O-])C(=O)OC
> 100 µM

Provide measured TGI value, entry: CCc1ccc(/C=C/c2ccc(O)c3ncccc23)[n+](C)c1
> 100 µM

Determine its reported TGI: C[C@H]1C(=O)O[C@@H]2CCN3CC=C(COC(=O)[C@](C)(O)[C@@]1(C)O)[C@H]23
> 100 µM

# return recorded TGI for input Cn1c(=O)c(Oc2ccc(F)cc2)cc2cnc(NC3CCOCC3)nc21
> 25 µM

Give the measured TGI for COc1ccc(N=NC(=O)NC(CC(C)C)C(=O)NC(C)C(=O)O)cc1 (configuration not stated)
> 100 µM

Provide measured TGI value, entry: O=C1NC(N/N=C\C(O)C(O)C(O)C(O)CO)=N/C1=C/c1ccc(Cl)cc1 (configuration not stated)
> 100 µM

###

For each entry below, report its TGI value.
# Test system: SF-539 CNS
# assay_procedure: NCI tumour cell line growth inhibition, 48 h

// fetch TGI given entry CC(=O)N1CCC(=O)/C(=C/c2ccccc2)C1
> 100 µM

Could you please provide reported TGI for CC1(C)OC2C(O)C(CO)OC2(C(F)F)O1 (stereo unspecified) ? Thanks!
> 100 µM

Using the record for CCOC(=O)c1nc2cc(F)c(N3CCOCC3)cc2[nH]c1=O , state its measured TGI.
> 100 µM

Please supply the value of reported TGI for the item COc1ccc(OC)c(/C=C(/C#N)c2ccccc2)c1
> 100 µM

Give me measured TGI, please, for this compound: CCCOC(=O)CNC(=O)OC(C)(C)C
> 100 µM

Let me know recorded TGI for COc1cc2c(cc1OC)C1C[C@]3(CCN1CC2)C(=O)N(c1ccccc1)C(=O)N3C(C)=O (stereo partly specified) , thanks.
> 200 µM

###

# Test system: LXFL 529 NSCLC
# assay_procedure: NCI tumour cell line growth inhibition, 48 h
Would you kindly list TGI for each of these compounds?

Specify reported TGI for the compound shown: COC(=O)C1=C(C(=O)OC)C2=S(SC3=C2CCCC3)S1 (configuration not stated)
30 µM

Input CS/C(=C(\S)c1ccccc1)c1ccccc1 , output reported TGI.
> 100 µM

Look up and report measured TGI for this entry: COC12OCCN(C)C1=CC(=O)C1=NNC(C)C12 (configuration not stated)
> 100 µM

For the compound CS(=O)(=O)c1ccc(-c2cc(-c3ccc(S(C)(=O)=O)cc3)[n+](-c3cc(-c4ccccc4)c([O-])c(-c4ccccc4)c3)c(-c3ccc(S(C)(=O)=O)cc3)c2)cc1 , give its reported TGI.
> 100 µM

Tell me its TGI given Cc1cccc2c1Sc1ccccc1C2NC(=O)CCN(C)C (configuration not stated) as the entry.
> 100 µM

Identify measured TGI corresponding to C[Si](C)(C)/C(I)=C/CO
> 100 µM

State, in one line, measured TGI of Cc1nn(C(=O)CC(=O)Nc2ccc(Cl)cc2)c(C)c1N=Nc1ccccc1C(=O)O
> 100 µM

Answer with reported TGI of COc1ccc(C(C#N)NNC(=O)Cc2ccccc2)cc1OC (configuration not stated)
> 100 µM

Return reported TGI. Input compound: C=CN1C(=O)[C@H](Oc2ccccc2)[C@@H]1c1ccccc1
> 100 µM

Give TGI for CC(C)=CC1CC(=[N+]=[N-])C(=O)C1(C)C (configuration not stated)
> 100 µM

Provide TGI value for the following compound: COc1ccc(OC)c(/C=C(/C#N)c2ccccc2)c1
> 100 µM

Return value of TGI for input O=C1CCC(=O)c2c1c(O)c1ccncc1c2O , no commentary.
30.2 µM

Data credit: PubChem BioAssay (NCI)
